- assayed_system: UniProt P11169
- Sequence (P11169 1-496): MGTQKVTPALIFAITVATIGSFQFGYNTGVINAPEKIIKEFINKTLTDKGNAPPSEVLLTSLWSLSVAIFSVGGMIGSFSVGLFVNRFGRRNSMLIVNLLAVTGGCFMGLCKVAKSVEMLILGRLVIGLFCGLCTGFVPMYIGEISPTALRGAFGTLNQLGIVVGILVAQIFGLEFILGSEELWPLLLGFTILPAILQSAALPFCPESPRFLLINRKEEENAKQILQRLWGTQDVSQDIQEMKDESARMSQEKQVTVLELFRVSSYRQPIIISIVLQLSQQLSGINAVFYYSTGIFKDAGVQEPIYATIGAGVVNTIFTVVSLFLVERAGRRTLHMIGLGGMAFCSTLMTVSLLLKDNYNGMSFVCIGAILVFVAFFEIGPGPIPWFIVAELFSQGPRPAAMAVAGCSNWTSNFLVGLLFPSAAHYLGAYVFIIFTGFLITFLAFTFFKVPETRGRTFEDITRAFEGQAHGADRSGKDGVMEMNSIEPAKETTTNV
- assay_remarks: Glucose transport assay, wild-type GLUT3 expressed in hxt^0 yeast cells EBY.S7 (C^14-glucose uptake)
- details: wild-type GLUT3 in hxt^0 yeast cells, 3 mM glucose, uptake 10 min; read-out: IC50 for GLUT3 transport inhibition
measure_name: IC50 (µM)

>>> assay_value("CC(=O)Nc1ccc(S(=O)(=O)Nc2ccc(Nc3cc(N(C)C)nc(C)n3)cc2)cc1")
7.01
>>> assay_value("COc1ccccc1-n1c(/C=C/c2ccc(O)cc2)nc2ccc(Br)cc2c1=O")
12.2
>>> assay_value("O=C(Nc1cccc(Cl)c1)c1cccc(NC(=O)c2cccc([N+](=O)[O-])c2)c1")
23.6
>>> assay_value("Cc1cc(NC(=O)CCC2Cc3ccccc3NC2=O)nc(-c2ccccc2)n1 (stereo not drawn)")
19.3
>>> assay_value("Cc1cccnc1OC1CCN(c2cc(N3CCCC3CO)ncn2)CC1 (stereo not drawn)")
12.5
>>> assay_value("Cc1ccccc1CN(Cc1nnc(C(C)(C)C)o1)c1ccc2nc(O)[nH]c2c1")
38.4

====

- assayed_system: UniProt P14672
- Sequence (P14672 whole entry): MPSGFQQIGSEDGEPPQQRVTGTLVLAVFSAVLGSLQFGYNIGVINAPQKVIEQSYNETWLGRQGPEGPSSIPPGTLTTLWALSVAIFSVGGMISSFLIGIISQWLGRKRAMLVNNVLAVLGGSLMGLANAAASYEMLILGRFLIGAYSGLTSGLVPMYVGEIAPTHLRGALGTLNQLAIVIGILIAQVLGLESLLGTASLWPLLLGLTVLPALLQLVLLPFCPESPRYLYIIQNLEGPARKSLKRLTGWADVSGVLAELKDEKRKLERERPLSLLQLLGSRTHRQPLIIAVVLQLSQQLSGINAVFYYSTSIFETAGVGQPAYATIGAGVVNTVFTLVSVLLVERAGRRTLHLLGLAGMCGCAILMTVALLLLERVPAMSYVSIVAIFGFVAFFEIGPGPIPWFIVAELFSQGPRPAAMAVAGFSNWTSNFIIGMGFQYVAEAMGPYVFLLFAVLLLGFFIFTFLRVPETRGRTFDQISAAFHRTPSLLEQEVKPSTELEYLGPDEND
- assay_remarks: Glucose transport assay, GLUT4 expressed in hxt^0 yeast cells SDY.022
- details: hxt^0 yeast cells, 5 mM glucose; read-out: IC50 for GLUT4 transport inhibition
measure_name: IC50 (µM)

>>> assay_value("Cc1cccnc1OC1CCN(c2cc(N3CCCC3CO)ncn2)CC1 (stereo not drawn)")
25.6
>>> assay_value("O=C(Nc1cccc(Cl)c1)c1cccc(NC(=O)c2cccc([N+](=O)[O-])c2)c1")
12.4
>>> assay_value("Cc1cc(NC(=O)CCC2Cc3ccccc3NC2=O)nc(-c2ccccc2)n1 (stereo not drawn)")
3.88
>>> assay_value("COc1ccccc1-n1c(/C=C/c2ccc(O)cc2)nc2ccc(Br)cc2c1=O")
12.7
>>> assay_value("Cc1ccccc1CN(Cc1nnc(C(C)(C)C)o1)c1ccc2nc(O)[nH]c2c1")
6.94

====

Measured IC50 by item
- assayed_system: GLUT2∆loopS_Q455R (Homo sapiens, UniProt P11168, Q455R, form not given)
- Sequence (P11168 whole entry Q455R, form open): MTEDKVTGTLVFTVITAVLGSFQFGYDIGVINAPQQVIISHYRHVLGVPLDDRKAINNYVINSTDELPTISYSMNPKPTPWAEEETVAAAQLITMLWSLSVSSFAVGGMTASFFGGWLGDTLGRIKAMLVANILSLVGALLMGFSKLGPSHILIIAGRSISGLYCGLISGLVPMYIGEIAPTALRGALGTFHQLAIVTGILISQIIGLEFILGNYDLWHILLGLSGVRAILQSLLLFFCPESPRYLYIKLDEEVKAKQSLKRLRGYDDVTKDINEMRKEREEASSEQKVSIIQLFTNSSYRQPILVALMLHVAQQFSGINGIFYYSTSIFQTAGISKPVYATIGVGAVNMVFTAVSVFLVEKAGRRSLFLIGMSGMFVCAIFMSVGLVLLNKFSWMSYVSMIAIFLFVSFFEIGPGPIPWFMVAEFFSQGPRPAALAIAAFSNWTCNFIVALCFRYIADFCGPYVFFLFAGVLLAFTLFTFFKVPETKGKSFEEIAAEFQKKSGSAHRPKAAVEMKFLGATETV
- assay_remarks: Glucose transport assay, GLUT2∆loopS_Q455R expressed in hxt^0 yeast cells EBY.S7
- Format: cell-based
- details: GLUT2∆loopS_Q455R in hxt^0 yeast cells, 15 mM glucose; read-out: IC50 for GLUT2 transport inhibition
measure_name: IC50 (µM)

>>> assay_value("Cc1ccccc1CN(Cc1nnc(C(C)(C)C)o1)c1ccc2nc(O)[nH]c2c1")
24.7
>>> assay_value("Cc1cc(NC(=O)CCC2Cc3ccccc3NC2=O)nc(-c2ccccc2)n1 (centres unmarked)")
40
>>> assay_value("CC(=O)Nc1ccc(S(=O)(=O)Nc2ccc(Nc3cc(N(C)C)nc(C)n3)cc2)cc1")
29.4
